Just for reference, patent US10787462B2 is where these values come from.

Target: human RIPK1 (1-375) (Homo sapiens)
Construct: human RIPK1 (1-375) gene; GST; made in house; host or cells: Sf-9 insect cells
Test: Human RIPK1 enzyme inhibitory effect (ADP-Glo Kinase Assay)
Format: biochemical
Conditions: read-out: human RIPK1 enzyme inhibitory effect at 10 μM (% inhibition), 10 μM test compound; well without enzyme = 100% inhibition
QUANTITY: inhibition at 10 µM (%)

| MOLECULE | inhibition at 10 µM (%) |
| --- | --- |
| CN1C(=O)C(N2CCc3c(nn(Cc4ccccc4)c3Cl)C2=O)CCc2cnccc21 (centres unmarked) | 98 |
| CN1C(=O)[C@@H](N2CCc3c(nn(Cc4ccccc4)c3Cl)C2=O)COc2cc(C(=O)NCC(C)(C)O)ccc21 | 101 |
| CN1C(=O)[C@@H](N2CCc3cn(Cc4ccccn4)nc3C2=O)COc2ccccc21 | 97 |
| COc1cccc(Cn2cc3c(n2)C(=O)N([C@H]2COc4ccccc4N(C)C2=O)CC3)c1 | 97 |
| CN1C(=O)[C@@H](N2CCc3cn(Cc4cc(C#N)ccc4F)nc3C2=O)COc2ccccc21 | 99 |
| CN1C(=O)[C@@H](N2CCc3c(nn(Cc4cnccn4)c3Cl)C2=O)COc2ccc(F)cc21 | 100 |
| CN1C[C@H](N2CCc3cn(Cc4ccccc4)nc3C2=O)C(=O)N(C)c2ccccc21 | 98 |
| CN1C(=O)[C@@H](N2CCc3cn(Cc4cccc(Cl)c4)nc3C2=O)COc2ccccc21 | 100 |

====

Target: human RIPK1 (1-375) (Homo sapiens, UniProt Q13546)
Construct: human RIPK1 (1-375) gene; GST; made in house; host or cells: Sf-9 insect cells
Sequence (Q13546 1-375): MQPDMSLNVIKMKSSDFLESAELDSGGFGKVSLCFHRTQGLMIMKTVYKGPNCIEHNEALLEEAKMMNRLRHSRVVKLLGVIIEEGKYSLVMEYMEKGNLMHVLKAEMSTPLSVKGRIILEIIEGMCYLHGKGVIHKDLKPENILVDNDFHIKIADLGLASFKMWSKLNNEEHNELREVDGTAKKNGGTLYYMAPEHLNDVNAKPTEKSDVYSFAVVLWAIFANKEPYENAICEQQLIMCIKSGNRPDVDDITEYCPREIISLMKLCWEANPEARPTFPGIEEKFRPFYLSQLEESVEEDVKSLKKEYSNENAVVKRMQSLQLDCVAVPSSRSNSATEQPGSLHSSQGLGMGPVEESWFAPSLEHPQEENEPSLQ
Assay: Human RIPK1 enzyme inhibitory effect (ADP-Glo Kinase Assay)
Assay type: biochemical
Settings: read-out: human RIPK1 enzyme inhibitory effect at 10 μM (% inhibition), 10 μM test compound; well without enzyme = 100% inhibition
QUANTITY: inhibition at 10 µM (%)

| COMPOUND | QUANTITY | READOUT NUMBER |
| --- | --- | --- |
| Cc1c2c(nn1Cc1ccccc1F)C(=O)N([C@H]1COc3cc(Br)ccc3N(C)C1=O)CC2 | inhibition at 10 µM | 100 |
| COc1ccc(Cn2c(Cc3ccccc3)nc3c2CCN([C@H]2COc4ccccc4N(C)C2=O)C3=O)cc1 | inhibition at 10 µM | 93 |
| N#Cc1ccc2c(c1)OC[C@H](N1CCc3c(nn(Cc4ccccc4)c3Cl)C1=O)C(=O)N2 | inhibition at 10 µM | 92 |
| CN1C(=O)[C@@H](N2CCc3c(nn(Cc4ccccc4)c3Cl)C2=O)COc2cc(-c3ccn(C)n3)ccc21 | inhibition at 10 µM | 100 |
| CN1C(=O)[C@@H](N2CCc3cn(Cc4ccc(C#N)cc4)nc3C2=O)COc2ccccc21 | inhibition at 10 µM | 97 |
| CN1C(=O)[C@@H](N2CCn3cc(Cc4ccccc4)nc3C2=O)COc2ccccc21 | inhibition at 10 µM | 91 |
| CN1C(=O)[C@@H](N2CCc3c(nn(Cc4ccccc4)c3Cl)C2=O)COc2cc(Br)ccc21 | inhibition at 10 µM | 101 |
| CN1C(=O)C(N2CCc3c(nn(Cc4c(F)cccc4F)c3Cl)C2=O)CCc2c1cnn2C (centres unmarked) | inhibition at 10 µM | 100 |
